Please go through the items and note down their Percent Inhibition of Plaque Numbers (Compared to Virus Controls).
# System: human cytomegalovirus (HCMV), strain AD-169
# experiment: Antiviral test (plaque reduction) versus HCMV, strain AD-169, in MRC-5 cells
# Type: cell-based
# cond: 0.01 μg/ml; Example 2
Return type: number; implicit unit %.

Q: Give Percent Inhibition of Plaque Numbers (Compared to Virus Controls) only, for Cc1cc(O)c2c(c1)C(C1c3cc(C)cc(O)c3C(=O)c3c(O)cc(O)cc31)c1cc(O)cc(O)c1C2=O (centres unmarked) [Emodin Bianthrone (d,1), emodin bianthrone] , using human cytomegalovirus (HCMV), strain AD-169 data.
A: 0

Q: Give Percent Inhibition of Plaque Numbers (Compared to Virus Controls) only, for Cc1cc(O)c2c(c1)C(C1c3cc(C)cc(O)c3C(=O)c3c(O)cc(O)cc31)c1cc(O)cc(O)c1C2=O (centres unmarked) [Emodin Bianthrone (mixed), emodin bianthrone] , using human cytomegalovirus (HCMV), strain AD-169 data.
A: 0

Q: Give Percent Inhibition of Plaque Numbers (Compared to Virus Controls) only, for Cc1cc(O)c2c(c1)C(C1c3cc(C)cc(O)c3C(=O)c3c(O)cc(O)cc31)c1cc(O)cc(O)c1C2=O (stereo not drawn) [Emodin Bianthrone (meso), emodin bianthrone] , using human cytomegalovirus (HCMV), strain AD-169 data.
A: 0

Q: Give Percent Inhibition of Plaque Numbers (Compared to Virus Controls) only, for O=C(O)c1cc(O)c2c(c1)[C@H]([C@H]1c3cc(C(=O)O)cc(O)c3C(=O)c3c(O[C@@H]4O[C@H](CO)[C@@H](O)[C@H](O)[C@H]4O)cccc31)c1cccc(O[C@@H]3O[C@H](CO)[C@@H](O)[C@H](O)[C@H]3O)c1C2=O [(+)Sennoside A, sennoside A] , using human cytomegalovirus (HCMV), strain AD-169 data.
A: 0

Q: Give Percent Inhibition of Plaque Numbers (Compared to Virus Controls) only, for O=C(O)c1cc(O)c2c(c1)[C@@H]([C@H]1c3cc(C(=O)O)cc(O)c3C(=O)c3c(O[C@@H]4O[C@H](CO)[C@@H](O)[C@H](O)[C@H]4O)cccc31)c1cccc(O[C@@H]3O[C@H](CO)[C@@H](O)[C@H](O)[C@H]3O)c1C2=O [Meso Sennoside B, sennoside B] , using human cytomegalovirus (HCMV), strain AD-169 data.
A: 0

###

# Tested on: MRC-5 cells
# cond: Table 9 summary; two values = two experiments
Please go through the items and note down their CD50.
Return type: number; implicit unit µg/mL.

Q: Quick one: give measured CD50 for Cc1cc(O)c2c(c1)C(C1c3cc(C)cc(O)c3C(=O)c3c(O)cc(O)cc31)c1cc(O)cc(O)c1C2=O (stereo not drawn) [Emodin Bianthrone (d,1), emodin bianthrone]
A: 1.2

Q: Quick one: give measured CD50 for Cc1cc(O)c2c(c1)C(C1c3cc(C)cc(O)c3C(=O)c3c(O)cc(O)cc31)c1cc(O)cc(O)c1C2=O (stereo not drawn) [Emodin Bianthrone (mixed), emodin bianthrone]
A: 1.1

Q: Quick one: give measured CD50 for Cc1cc(O)c2c(c1)C(C1c3cc(C)cc(O)c3C(=O)c3c(O)cc(O)cc31)c1cc(O)cc(O)c1C2=O (stereo not drawn) [Emodin Bianthrone (meso), emodin bianthrone]
A: 1.8

###

# Tested on: MRC-5 cells
# cond: Table 9 summary; two values = two experiments
value_type: CD50

Q: Quick one: give measured CD50 for O=C(O)c1cc(O)c2c(c1)[C@@H]([C@H]1c3cc(C(=O)O)cc(O)c3C(=O)c3c(O[C@@H]4O[C@H](CO)[C@@H](O)[C@H](O)[C@H]4O)cccc31)c1cccc(O[C@@H]3O[C@H](CO)[C@@H](O)[C@H](O)[C@H]3O)c1C2=O [Meso Sennoside B, sennoside B]
A: >10 µg/mL

Q: Quick one: give measured CD50 for O=C1c2ccccc2C(=O)c2c1ccc(O)c2O
A: >10 µg/mL

Q: Quick one: give measured CD50 for O=C(O)c1cc(O)c2c(c1)[C@H]([C@H]1c3cc(C(=O)O)cc(O)c3C(=O)c3c(O[C@@H]4O[C@H](CO)[C@@H](O)[C@H](O)[C@H]4O)cccc31)c1cccc(O[C@@H]3O[C@H](CO)[C@@H](O)[C@H](O)[C@H]3O)c1C2=O [(+)Sennoside A, sennoside A]
A: >10 µg/mL
